Where do these numbers come from? They come from ChEMBL document CHEMBL5316329.

test system: Human immunodeficiency virus 1; assay: Antiviral activity against NNRTI-resistant HIV-1 RES056 infected in human MT4 cells assessed as virus-induced cytopathicity treated for 5 days by MTT assay; type: functional, organism-based; details: Human immunodeficiency virus 1, RES056, MT4, 120 h
pEC50: −log10 of the molar value.
# Lookup of reported pEC50 keyed by entry
metric name: pEC50

> print(dat)
                             chemical.string             experimental.system  metric.name  recorded.number
 1  Cc1cc(/C=C/C#N)cc(C)c1Oc1nc(NC2CCN(Cc3ccc(S(C)(=O)=O)cc3)CC2)ncc1-c1ccccc1F  Human immunodeficiency virus 1        pEC50             6.74
 2  Cc1cc(/C=C/C#N)cc(C)c1Oc1nc(NC2CCN(Cc3ccc(C(N)=O)cc3)CC2)ncc1-c1ccccc1F  Human immunodeficiency virus 1        pEC50             6.72
 3  Cc1cc(/C=C/C#N)cc(C)c1Cc1nc(NC2CCN(Cc3ccc(C(N)=O)cc3)CC2)ncc1-c1cncnc1  Human immunodeficiency virus 1        pEC50             8.00
 4  Cc1cc(/C=C/C#N)cc(C)c1Cc1nc(NC2CCN(Cc3ccc(S(C)(=O)=O)cc3)CC2)ncc1-c1cnc(N)nc1  Human immunodeficiency virus 1        pEC50             7.53
 5  CC(=O)c1ccc(-c2cnc(NC3CCN(Cc4ccc(S(N)(=O)=O)cc4)CC3)nc2Oc2c(C)cc(/C=C/C#N)cc2C)cc1  Human immunodeficiency virus 1        pEC50             7.39
 6  Cc1cc(/C=C/C#N)cc(C)c1Oc1nc(NC2CCN(Cc3ccc(S(N)(=O)=O)cc3)CC2)ncc1-c1cccc(O)c1  Human immunodeficiency virus 1        pEC50             7.44
 7  Cc1cc(/C=C/C#N)cc(C)c1Oc1nc(NC2CCN(Cc3ccc(C(N)=O)cc3)CC2)ncc1-c1cccc(F)c1  Human immunodeficiency virus 1        pEC50             6.95
 8  Cc1cc(/C=C/C#N)cc(C)c1Oc1nc(NC2CCN(Cc3ccc(C(N)=O)cc3)CC2)ncc1-c1ccc(O)cc1  Human immunodeficiency virus 1        pEC50             6.82
 9  Cc1cc(/C=C/C#N)cc(C)c1Oc1nc(NC2CCN(Cc3ccc(S(C)(=O)=O)cc3)CC2)ncc1-c1ccc(F)cc1  Human immunodeficiency virus 1        pEC50             7.00
10  Cc1cc(/C=C/C#N)cc(C)c1Oc1nc(NC2CCN(Cc3ccc(C(N)=O)cc3)CC2)ncc1-c1cccc(N)c1  Human immunodeficiency virus 1        pEC50             7.65
11  Cc1cc(/C=C/C#N)cc(C)c1Oc1nc(NC2CCN(Cc3ccc(C(N)=O)cc3)CC2)ncc1-c1ccccc1N  Human immunodeficiency virus 1        pEC50             7.31
12  Cc1cc(/C=C/C#N)cc(C)c1Oc1nc(NC2CCN(Cc3ccc(S(N)(=O)=O)cc3)CC2)ncc1-c1ccc(F)cc1  Human immunodeficiency virus 1        pEC50             7.17
13  Cc1cc(/C=C/C#N)cc(C)c1Oc1nc(NC2CCN(Cc3ccc(S(C)(=O)=O)cc3)CC2)ncc1-c1ccc2c(c1)OCO2  Human immunodeficiency virus 1        pEC50             7.23
14  Cc1cc(/C=C/C#N)cc(C)c1Cc1nc(NC2CCN(Cc3ccc(C(N)=O)cc3)CC2)ncc1-c1cnc(N)nc1  Human immunodeficiency virus 1        pEC50             7.16
15  Cc1cc(/C=C/C#N)cc(C)c1Oc1nc(NC2CCN(Cc3ccc(S(C)(=O)=O)cc3)CC2)ncc1-c1cccc(N)c1  Human immunodeficiency virus 1        pEC50             7.28
16  Cc1cc(/C=C/C#N)cc(C)c1Oc1nc(NC2CCN(Cc3ccc(S(N)(=O)=O)cc3)CC2)ncc1-c1ccc(N)cc1  Human immunodeficiency virus 1        pEC50             7.63
17  Cc1cc(/C=C/C#N)cc(C)c1Cc1nc(NC2CCN(Cc3ccc(S(N)(=O)=O)cc3)CC2)ncc1-c1cncnc1  Human immunodeficiency virus 1        pEC50             7.42
18  Cc1cc(/C=C/C#N)cc(C)c1Cc1nc(NC2CCN(Cc3ccc(S(C)(=O)=O)cc3)CC2)ncc1-c1cncnc1  Human immunodeficiency virus 1        pEC50             7.85
